Protein target, amino acids: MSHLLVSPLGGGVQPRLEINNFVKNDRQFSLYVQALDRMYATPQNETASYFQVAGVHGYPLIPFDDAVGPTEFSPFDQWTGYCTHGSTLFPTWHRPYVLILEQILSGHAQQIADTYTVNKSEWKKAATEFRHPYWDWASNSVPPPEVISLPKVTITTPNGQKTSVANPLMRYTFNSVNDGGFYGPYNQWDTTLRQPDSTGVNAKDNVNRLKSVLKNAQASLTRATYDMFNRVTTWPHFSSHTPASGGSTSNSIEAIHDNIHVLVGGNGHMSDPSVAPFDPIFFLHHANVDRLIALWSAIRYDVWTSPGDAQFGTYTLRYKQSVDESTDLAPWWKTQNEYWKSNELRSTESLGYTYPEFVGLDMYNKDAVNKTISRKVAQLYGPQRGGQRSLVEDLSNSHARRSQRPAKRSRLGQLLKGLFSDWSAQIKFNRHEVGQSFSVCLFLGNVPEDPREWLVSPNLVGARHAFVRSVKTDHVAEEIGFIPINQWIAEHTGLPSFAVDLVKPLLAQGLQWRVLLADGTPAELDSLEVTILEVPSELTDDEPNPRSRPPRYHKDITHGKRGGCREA
METRIC: IC50

Previously resolved entries follow.
O=C(c1ccccc1)c1cccc(O)c1O [Polyhydroxy benzophenone, 18]
> 200 µM
O=C(c1ccccc1)c1c(O)cc(O)cc1O [Polyhydroxy benzophenone, 16]
> 200 µM

Now consider a different compound.
Please look up its IC50: O=C(c1ccc(O)cc1O)c1ccc(O)cc1O [Polyhydroxy benzophenone, 4] > 200 µM

Where do these numbers come from? They come from BindingDB's records for doi:10.3109/14756366.2010.521745.
